assayOverview: RAM signaling pathway blockade in yeast – S. cerevisiae, Pdr1DBD-CYC8 efflux-inhibited sensitized strain, primary screen (AID 1298);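 note: 0% = DMSO untreated cells without growth and 100% = 10 µM 1-NA-PP1 full growth; higher means more yeast growth rescued from 5-FOA killing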
condition: S. cerevisiae cbk1-as DSE1-URA3 strain, 5-FOA growth OD615, 2 d; at 50 µM; stronger effect = higher value
measuredEndpoint: RAM network inhibition (%)
The figure you give is taken to be in %; do not add the unit.

// query Tell me measured RAM network inhibition for `Cc1cc(Nc2ccc(F)cc2C)n2ncnc2n1` please.
// result 5.54

// query Note RAM network inhibition for the compound shown: `CCOC(=O)C1=C2N(C)c3ccccc3N2CCC1=O`
// result -0.41

// query Output RAM network inhibition of `Cn1nc(-c2ccc(Cl)cc2)c2cc(C(=O)NCCCN3CCOCC3)sc21`
// result -0.16

// query Read the entry CC1CCCN(c2ncnc3c2cnn3-c2ccc(Cl)cc2)C1 (configuration not stated) and write its reported RAM network inhibition.
// result 4.37

// query // fetch RAM network inhibition given entry COc1ccc(C(c2sc3ncnn3c2O)N2CCN(c3ccccc3F)CC2)cc1OC (configuration not stated)
// result 1.06

// query Provide only the value of recorded RAM network inhibition for O=C(C1CC(c2ccc(F)cc2)=NO1)N1CCN(c2ccccc2)CC1 (configuration not stated)
// result 3.67

// query Determine its reported RAM network inhibition: CC1Cc2ccccc2N1C(=O)C1CCCN(S(=O)(=O)c2cccc3cccnc23)C1 (configuration not stated)
// result 7.93

Provenance of the data: PubChem BioAssay
